assay_system: EBOV GP[change] (Ebola virus) (UniProt Q05320)
Sequence (Q05320 33-501, chain 1 of 2): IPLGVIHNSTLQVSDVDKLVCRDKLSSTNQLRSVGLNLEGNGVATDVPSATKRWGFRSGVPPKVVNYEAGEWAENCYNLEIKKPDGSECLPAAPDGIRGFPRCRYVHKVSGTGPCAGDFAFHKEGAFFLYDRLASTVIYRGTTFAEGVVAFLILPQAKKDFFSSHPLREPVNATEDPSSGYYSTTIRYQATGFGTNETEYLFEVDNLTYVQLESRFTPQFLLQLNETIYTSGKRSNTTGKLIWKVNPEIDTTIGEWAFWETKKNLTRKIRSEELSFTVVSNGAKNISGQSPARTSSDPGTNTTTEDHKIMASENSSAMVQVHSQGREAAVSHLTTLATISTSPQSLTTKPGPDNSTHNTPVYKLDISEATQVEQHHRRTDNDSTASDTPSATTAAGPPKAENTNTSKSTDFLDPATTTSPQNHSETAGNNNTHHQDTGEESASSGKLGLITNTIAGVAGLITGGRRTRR
Sequence (Q05320 502-650, chain 2 of 2): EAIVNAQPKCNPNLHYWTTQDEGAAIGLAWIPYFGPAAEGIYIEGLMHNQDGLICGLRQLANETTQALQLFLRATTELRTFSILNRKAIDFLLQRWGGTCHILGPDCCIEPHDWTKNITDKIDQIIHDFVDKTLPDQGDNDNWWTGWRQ
Assignment: determine reported pKd for the given binders.
Bear in mind: pKd is minus log10 of a mol/L concentration; give just that figure.

In: Sample PE-87 Y111A (antibody, V domains shown) VH: QVQLVQSGVTLVQPGGSLRVSCAASGFTFSSYAMSWVRQAPGKGLEWVSAISGLGGSTYYADSVKGRFTISRDNSKNTLYLQMNSLRAEDTAVYYCAKDHRVWAAGYHFDAWGQGALVTVSS VL: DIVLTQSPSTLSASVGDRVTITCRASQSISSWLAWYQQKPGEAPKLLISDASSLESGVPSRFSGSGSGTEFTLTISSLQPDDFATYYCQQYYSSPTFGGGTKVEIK — what was its pKd?
Out: 8.23

In: Look up pKd: PE-87 H100A (antibody, V domains shown) VH: QVQLVQSGVTLVQPGGSLRVSCAASGFTFSSYAMSWVRQAPGKGLEWVSAISGLGGSTYYADSVKGRFTISRDNSKNTLYLQMNSLRAEDTAVYYCAKDARVWAAGYHFDYWGQGALVTVSS VL: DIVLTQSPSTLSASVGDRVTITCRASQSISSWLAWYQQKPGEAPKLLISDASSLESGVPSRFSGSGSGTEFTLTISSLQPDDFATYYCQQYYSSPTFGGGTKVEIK
Out: 8.35

In: Any idea what pKd was measured for PE-87 W103A (antibody, V domains shown) VH: QVQLVQSGVTLVQPGGSLRVSCAASGFTFSSYAMSWVRQAPGKGLEWVSAISGLGGSTYYADSVKGRFTISRDNSKNTLYLQMNSLRAEDTAVYYCAKDHRVAAAGYHFDYWGQGALVTVSS VL: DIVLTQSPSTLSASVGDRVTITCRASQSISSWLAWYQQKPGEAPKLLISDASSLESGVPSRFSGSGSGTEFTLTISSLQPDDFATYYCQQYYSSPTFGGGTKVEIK ?
Out: 8.89
